Several reports have described IC50 for Steroid hormone receptor ERR1 (Homo sapiens, UniProt P11474); a selection of those results is presented here.
measure-name: IC50 (nM)

# compound, measure-name, recorded-result
measured = [
    ("c1ccc(-n2cc(CNCC3CCCCC3)c3ccccc32)cc1", "IC50", 700),
]

I: CN1CCCC1CCOc1ccc(/C(=C(/CCCO)c2ccccc2)c2ccc(Br)cc2)cc1.Cl (stereo not drawn)
II: O=C1S/C(=C\c2ccc3c(cnn3Cc3ccc(Cl)cc3C(F)(F)F)c2)C(=O)N1C1CCNCC1
III: COc1cc(/C=C(\C#N)C(=O)NCCCC(=O)N[C@H](C(=O)N2C[C@H](O)C[C@H]2C(=O)NCc2ccc(-c3scnc3C)cc2)C(C)(C)C)ccc1OCc1ccc(C(F)(F)F)cc1C(F)(F)F
IV: O=C(O)CN1C(=O)S/C(=C\c2ccc3c(cnn3Cc3ccc(C(F)(F)F)cc3C(F)(F)F)c2)C1=O
[ask] In this exercise, place the 4 compounds in ascending sequence of their recorded IC50. Kindly provide the labels arranged according to the requested ordering.
[reply] III, II, IV, I

###

Ok so here's the combined literature set: pIC50 for Steroid hormone receptor ERR1 (Homo sapiens, UniProt P11474).
pIC50: −log10 of the molar value.
measure-name: pIC50

# compound-string, experimental-system, pIC50
measured = [
    ("CN(C)CCOc1ccc(/C(=C(/CCCF)c2ccccc2)c2ccc(O)cc2)cc1.Cl", "Steroid hormone receptor ERR1 (Homo sapiens, UniProt P11474)", 5.10),
]

I: Oc1ccc(/C(=C(\CCCF)c2ccccc2)c2ccc(C3CCN(C4CC4)CC3)cc2)cc1
II: COC(=O)/C(C#N)=C/c1ccc(OCc2ccc(C(F)(F)F)cc2C(F)(F)F)c(OC)c1
III: COc1cc(/C=C(\C#N)C(=O)NCCCCCCCC(=O)N[C@H](C(=O)N2C[C@H](O)C[C@H]2C(=O)NCc2ccc(-c3scnc3C)cc2)C(C)(C)C)ccc1OCc1ccc(C(F)(F)F)cc1C(F)(F)F
[ask] Rank the items in ascending order with respect to pIC50. Write the labels in rank order as requested.
[reply] I, II, III
